Target: TRPML1 (Homo sapiens)
Sequence (Q9GZU1 17-572 limits assumed): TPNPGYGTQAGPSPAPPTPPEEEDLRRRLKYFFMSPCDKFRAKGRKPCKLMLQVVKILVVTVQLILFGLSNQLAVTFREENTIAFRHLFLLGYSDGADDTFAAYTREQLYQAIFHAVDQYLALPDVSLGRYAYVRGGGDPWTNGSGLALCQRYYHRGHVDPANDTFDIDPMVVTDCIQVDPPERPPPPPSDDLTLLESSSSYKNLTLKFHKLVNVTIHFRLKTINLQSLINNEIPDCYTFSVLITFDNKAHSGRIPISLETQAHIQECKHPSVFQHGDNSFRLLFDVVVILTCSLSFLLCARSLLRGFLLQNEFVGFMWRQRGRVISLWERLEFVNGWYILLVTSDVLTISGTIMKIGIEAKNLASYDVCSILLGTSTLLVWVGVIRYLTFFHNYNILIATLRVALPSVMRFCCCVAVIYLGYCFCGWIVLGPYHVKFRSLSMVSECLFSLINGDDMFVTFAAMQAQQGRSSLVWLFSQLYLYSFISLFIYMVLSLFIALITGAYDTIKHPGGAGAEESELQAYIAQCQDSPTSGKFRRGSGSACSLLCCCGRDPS
Assay: Calcium flux in HEK293 overexpressing TRPML1 plasma membrane variant (FLIPR, Calcium 6 dye)
Settings: HEK293/TRPML1-PM clone A5 cells; 4-parameter logistic fit; read-out: TRPML1 calcium flux (FLIPR) dose response: EC50
parameter_measured: EC50 (nM)

Some solved cases for reference:
CN(c1ccccc1NS(=O)(=O)c1ccc(S(=O)(=O)N(C)C)cc1)C1CCCC(F)(F)C1 (centres unmarked) [Compound 104]	715
CN(Cc1ccccc1)c1ccccc1NS(=O)(=O)c1ccc(S(=O)(=O)N(C)C)cc1 [Compound 26]	300
CN(c1cccc(F)c1NS(=O)(=O)c1ccc(S(=O)(=O)N(C)C)cc1)C1CCCCC1 [Compound 3]	4760
CN(c1cc(Cl)ccc1NS(=O)(=O)c1ccc(S(=O)(=O)N(C)C)cc1)C1CCCCC1 [Compound 2]	3000

P. Cc1ncc(F)cc1CN(C)c1ccccc1NS(=O)(=O)c1ccc(S(=O)(=O)N(C)C)cc1 [Compound 75]
Q. Cc1nc(CN(C)c2ccccc2NS(=O)(=O)c2ccc(S(=O)(=O)N(C)C)cc2)ccc1F [Compound 85]
R. CCCN(C)c1c(Cl)cccc1NS(=O)(=O)c1ccc(S(=O)(=O)N(C)C)cc1 [Compound 74]
Challenge: Please order the records by their reported EC50, lowest number first. Please list the labels in the order you were asked to rank them.
Response given: R, Q, P
(R: 242 nM, Q: 447 nM, P: 2140 nM)
